System: HEK-293T
Assay: Cytotoxicity against human HEK293T cells assessed as reduction in cell viability
Format: cell-based
Hi there, I'd appreciate the recorded pIC50 for every entry that follows.
Expect pIC50 as a plain number equal to -log10 of the molar concentration.

In: Given the compound CC(C)(C)OC(=O)Cn1cc(CN2CC3(C)CN(Cc4cn(CC(=O)OC(C)(C)C)nn4)CC(C)(C2)C3=O)nn1 , write its reported pIC50.
Out: 3.33

In: Give the reported value of pIC50 for this record: CC12CN(Cc3cn(Cc4ccccc4)nn3)CC(C)(CN(Cc3cn(Cc4ccccc4)nn3)C1)C2=O
Out: 3.25

In: Quickly give me recorded pIC50 for CC12CN(C(=O)OC(C)(C)C)CC(C)(CN(C(=O)OC(C)(C)C)C1)C2
Out: 3.52

* * *

Test system: HEK-293T
Assay: Cytotoxicity against human HEK293T cells assessed as reduction in cell viability
Type: cell-based
Observation Type: IC50

In: Give the value of IC50 reported for the following: CC12CN(CC#N)CC(C)(CN(CC#N)C1)C2=O
Out: > 700 µM

In: Return reported IC50. Input compound: CC12CN(C(=O)/C=C/c3ccccc3)CC(C)(CN(C(=O)/C=C/c3ccccc3)C1)C2=O
Out: > 1000 µM

In: Return IC50 for the following compound: Cc1cc(CN2CC3(C)CN(Cc4cc(C)no4)CC(C)(C2)C3=O)on1
Out: > 700 µM
